These data points were gathered from PubChem BioAssay (NCATS).

test system: SC27B; experiment: qHTS profiling for inhibitors of Plasmodium falciparum proliferation (AID 504749); also: nearly all actives have a fitted effect of over 60% in size; conditions: P. falciparum in erythrocytes, SYBR Green DNA, 72 h; series mostly up to 28.7 µM
Records with an inconclusive call do not appear. Active and inactive are the calls of the source. Calls follow the shape of the dose curve; as a rule, active = well fitted inhibition curve with a large enough effect; inconclusive = small, poorly fitted or top-dose-only effect; inactive = flat fitted curve, though single readings scatter.
Permitted responses: YES (active), NO (inactive)

Data request: Can you look up the reported call for CNC[C@H](O)c1cccc(O)c1 for me?
Data returned: NO

Data request: Can you look up the reported call for O=C1CCC(N2C(=O)c3ccccc3C2=O)C(=O)N1 (stereo not drawn) for me?
Data returned: NO

Data request: Can you look up the reported call for CCOC(=O)C1=C[C@]2(CC)CCCN3CCc4c(n1c1ccccc41)[C@@H]32 for me?
Data returned: YES

Data request: Can you look up the reported call for CCOC(=O)N1CCC(=C2c3ccc(Cl)cc3CCc3cccnc32)CC1 for me?
Data returned: YES

Data request: Can you look up the reported call for Cc1c(C)c2c(c(C)c1O)CCC(C)(COc1ccc(CC3SC(=O)NC3=O)cc1)O2 (stereo not drawn) for me?
Data returned: YES

Data request: Can you look up the reported call for Cc1[nH]c(=O)c(C#N)cc1-c1ccncc1 for me?
Data returned: NO

Data request: Can you look up the reported call for OC(CN1CCC(Cc2ccc(F)cc2)CC1)c1ccc(Cl)cc1 (stereo not drawn) for me?
Data returned: YES

Data request: Can you look up the reported call for NC(=O)c1cnccn1 for me?
Data returned: NO

Data request: Can you look up the reported call for Nc1ccc(S(=O)(=O)Nc2ccnn2-c2ccccc2)cc1 for me?
Data returned: NO

Data request: Can you look up the reported call for NCCCC(N)(C(=O)O)C(F)F (stereo not drawn) for me?
Data returned: NO

Data request: Can you look up the reported call for Cn1cnc([N+](=O)[O-])c1Sc1ncnc2nc[nH]c12 for me?
Data returned: NO

Data request: Can you look up the reported call for CC(=O)Oc1ccccc1C(=O)O for me?
Data returned: NO

Data request: Can you look up the reported call for NCCc1ccc(O)c(O)c1 for me?
Data returned: NO

---

assay: Quantitative High-Throughput drug screen in 47 multiple myeloma cell lines against the NCATS MIPE library collection: OCIMY7_PLB cell viability assay (AID 1918987); conditions: OCI-MY7 myeloma viability, CellTiter-Glo ATP, 48 h; series mostly up to 45.8 µM; also: nearly all actives have a fitted effect of over 65% in size
Inconclusive results are not listed. Activity calls are given as the source filed them. Calls come from the whole dose curve; as a rule, active = well fitted cell-killing curve with a large enough effect; inconclusive = small, poorly fitted or top-dose-only effect, or effect the other way; inactive = no such curve, though single readings can be large or run the other way.
Permitted responses: Yes = active, No = inactive

Data request: Can you look up the reported call for CN(C)C(=O)c1ccc(S(=O)(=O)c2ccc(NC(=O)[C@@](C)(O)C(F)(F)F)c(Cl)c2)cc1 for me?
Data returned: Yes

Data request: Can you look up the reported call for Fc1ccc(Cl)cc1-c1nc(Nc2ccncc2)c2nccnc2n1 for me?
Data returned: No

Data request: Can you look up the reported call for CS(=O)(=O)c1ccc(C(=O)Nc2ccc(Cl)c(-c3ccccn3)c2)c(Cl)c1 for me?
Data returned: Yes

Data request: Can you look up the reported call for CCC(C)n1ncn(-c2ccc(N3CCN(c4ccc(OC[C@H]5CO[C@](Cn6cncn6)(c6ccc(Cl)cc6Cl)O5)cc4)CC3)cc2)c1=O (some centres undefined) for me?
Data returned: No

---

test: Quantitative High-Throughput drug screen in 47 multiple myeloma cell lines against the NCATS MIPE library collection: KMS21BM_JCRB cell viability assay (AID 1918974); details: ATP luminescence, 48 h
Inconclusive results are not listed. Active and inactive are the calls of the source. The call rests on the fitted dose curve; in most records, active means well fitted cell-killing curve with a large enough effect; inconclusive means small, poorly fitted or top-dose-only effect, or effect the other way; inactive means no such curve, though single readings can be large or run the other way.
Permitted responses: active, inactive

Data request: Can you look up the reported call for COc1ccc(-c2oc3cc(OC)ccc3c2C(=O)c2ccc(C#N)cc2)cc1 for me?
Data returned: active

Data request: Can you look up the reported call for COc1ccc(-c2ccc3c(N4CCOCC4)nc(N4C[C@@H](C)O[C@@H](C)C4)nc3n2)cc1CO for me?
Data returned: active

Data request: Can you look up the reported call for Oc1ccc(C2CNCCc3c2cc(O)c(O)c3Cl)cc1 (stereo unspecified) for me?
Data returned: active

Data request: Can you look up the reported call for CCOc1cc(N2CCC(O)CC2)ccc1Nc1ncc2c(n1)N(C)c1ccccc1C(=O)N2C for me?
Data returned: active

Data request: Can you look up the reported call for NNCCc1ccccc1 for me?
Data returned: active

Data request: Can you look up the reported call for CC[C@H](Nc1ncnc2nc[nH]c12)c1nc2cccc(F)c2c(=O)n1-c1ccccc1 for me?
Data returned: inactive

Data request: Can you look up the reported call for CC(C)(C)NCC(O)c1ccc(O)c(CO)c1 (stereo unspecified) for me?
Data returned: inactive

Data request: Can you look up the reported call for COc1ccc(-c2ccc3c(N4CCOC[C@H]4C)nc(N4CCOC[C@H]4C)nc3n2)cc1CO for me?
Data returned: active

Data request: Can you look up the reported call for Nc1ccc(S(=O)(=O)Nc2ccnn2-c2ccccc2)cc1 for me?
Data returned: inactive

Data request: Can you look up the reported call for O=C(NOC[C@H](O)CO)c1ccc(F)c(F)c1Nc1ccc(I)cc1F for me?
Data returned: active

Data request: Can you look up the reported call for O=C(Nc1ccc(F)c(C(F)(F)F)c1)Nc1nnc(-c2ccncc2)s1 for me?
Data returned: inactive
